assay: Mouse pharmacokinetic study; assay type: in vivo; conditions: Balb/c mouse (female), 10 mg/kg, po, plasma; read-out: Cmax
MEASURED_METRIC: Cmax (ng/mL)
Answer format: numeric, ng/mL implied, no suffix.

Which Cmax value belongs to N#Cc1c(N)sc2c(F)ccc(-c3c(F)c4c5c(nc(OC[C@@]67CCCN6C[C@H](F)C7)nc5c3F)N3CCCOC[C@H]3CO4)c12 (single isomer, unassigned) [Compound 163B] ?
5310

Which Cmax value belongs to C#Cc1c(F)ccc2cc(N)cc(-c3nc4c5c(nc(OC[C@@]67CCCN6C[C@H](F)C7)nc5c3F)N3CCCOC[C@H]3CO4)c12 ?
1140

----------
target: GppNp-KRAS G12V (Homo sapiens, UniProt P01116, G12V); test: biochemical
Sequence (P01116 1-169 isoform P01116-2 G12V): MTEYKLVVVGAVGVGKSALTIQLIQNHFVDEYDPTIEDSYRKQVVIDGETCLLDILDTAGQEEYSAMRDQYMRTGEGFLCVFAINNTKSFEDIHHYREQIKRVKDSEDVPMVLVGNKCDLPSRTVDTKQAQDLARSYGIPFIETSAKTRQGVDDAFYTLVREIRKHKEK
MEASURED_METRIC: IC50

Which IC50 value belongs to C#Cc1c(F)ccc2cc(N)cc(-c3nc4c5c(nc(OC[C@@]67CCCN6C[C@H](F)C7)nc5c3F)N3[C@H](C)CCOC[C@H]3N4C)c12 ?
> 1000 nM

Which IC50 value belongs to C#Cc1c(F)ccc2cc(N)cc(-c3nc4c5c(nc(OC[C@@]67CCCN6C[C@H](F)C7)nc5c3F)N3CCC(F)(F)CCC3N4C)c12 (stereo partly drawn) ?
> 1000 nM

Which IC50 value belongs to C#Cc1c(F)ccc2cc(N)cc(-c3nc4c5c(nc(OC[C@@]67CCCN6C[C@H](F)C7)nc5c3F)N3C/C(=N\OC)COC[C@H]3N4C)c12 ?
486 nM

----------
So I've got a bunch of molecules here, and I need their IC50 values.
target: GppNp-KRAS G12V (Homo sapiens, UniProt P01116, G12V); test: GTP-K-Ras and cRAF interaction assay, GppNp-KRAS G12V; details: read-out: Biochemical assays, IC50, KRAS G12V GppNp; GppNp-loaded K-Ras G12V, cRAF RBD interaction, HTRF
Answer format: numeric, nM implied, no suffix.

// fetch GppNp-KRAS G12V (Homo sapiens, UniProt P01116, G12V) IC50 for C#Cc1c(F)ccc2cc(N)cc(-c3nc4c5c(nc(OCC67CCCN6CC(F)C7)nc5c3F)N3CCCCCC3CO4)c12 (centres unmarked) [Compound 27B]
563

// fetch GppNp-KRAS G12V (Homo sapiens, UniProt P01116, G12V) IC50 for C#Cc1c(F)ccc2cc(N)cc(-c3nc4c5c(nc(OCC67CCCN6CC(F)C7)nc5c3F)N3C(C(F)F)CCOCC3N4C)c12 (centres unmarked) [Compound 52B]
622

// fetch GppNp-KRAS G12V (Homo sapiens, UniProt P01116, G12V) IC50 for C#Cc1c(F)ccc2cc(N)cc(-c3nc4c5c(nc(OCC67CC(=C)CN6CC(OC)C7)nc5c3F)N3CCCOCC3N4C)c12 (centres unmarked)
245

// fetch GppNp-KRAS G12V (Homo sapiens, UniProt P01116, G12V) IC50 for C#Cc1c(F)ccc2cc(N)cc(-c3c(Cl)c4c5c(nc(OCC67CCCN6CC(F)C7)nc5c3F)N3CCCOCC3CO4)c12 (single isomer, unassigned) [Compound 11B]
311

// fetch GppNp-KRAS G12V (Homo sapiens, UniProt P01116, G12V) IC50 for N#Cc1c(N)sc2c(F)ccc(-c3c(Cl)c4c5c(nc(OCC67CCCN6CC(F)C7)nc5c3F)N3CCCOCC3CO4)c12 (single isomer, unassigned) [Compound 66B]
8.62

----------
So I've got a bunch of compounds here, and I need their IC50 values.
target: GDP-KRAS G12D (Homo sapiens, UniProt P01116, G12D); experiment: biochemical
Sequence (P01116 1-169 isoform P01116-2 G12D): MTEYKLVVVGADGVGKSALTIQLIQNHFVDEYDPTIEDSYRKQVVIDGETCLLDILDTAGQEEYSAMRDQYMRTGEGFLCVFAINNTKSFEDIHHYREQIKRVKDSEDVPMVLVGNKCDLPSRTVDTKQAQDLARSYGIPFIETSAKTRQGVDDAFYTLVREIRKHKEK
Answer format: numeric, nM implied, no suffix.

// fetch GDP-KRAS G12D (Homo sapiens, UniProt P01116, G12D) IC50 for C#Cc1c(F)ccc2cc(N)cc(-c3nc4c5c(nc(OC[C@@]67CCCN6C[C@H](F)C7)nc5c3F)N3CC(F)CC[C@H](F)[C@H]3N4C)c12 (stereo partly drawn)
1.75

// fetch GDP-KRAS G12D (Homo sapiens, UniProt P01116, G12D) IC50 for C[C@H]1CCOC[C@H]2COc3c(Cl)c(-c4ccc(F)c5sc(N)c(C#N)c45)c(F)c4nc(OC[C@@]56CCCN5C[C@H](F)C6)nc(c34)N21 (atropisomer, axis not shown) [Compound 158A]
0.996

// fetch GDP-KRAS G12D (Homo sapiens, UniProt P01116, G12D) IC50 for C#Cc1c(F)ccc2cc(N)cc(-c3nc4c5c(nc(OC[C@@]67CCCN6C[C@H](F)C7)nc5c3F)N3C(C5CCC5)CCOCC3N4C)c12 (stereo partly drawn)
44.1

----------
So I've got a bunch of molecules here, and I need their IC50 values.
molecular target: GppNp-KRAS G12V (Homo sapiens, UniProt P01116, G12V); assay: biochemical

Which IC50 value belongs to C#Cc1c(F)ccc2cc(N)cc(-c3nc4c5c(nc(OC[C@@]67CCCN6C[C@H](F)C7)nc5c3F)N3CCCC=C(F)C3N4C)c12 (stereo partly drawn) ?
> 1000 nM

Which IC50 value belongs to C#Cc1c(F)ccc2cc(N)cc(-c3nc4c5c(nc(OC[C@@]67CCCN6C[C@H](F)C7)nc5c3F)N3CCCC(O)CC3N4C)c12 (stereo partly drawn) ?
> 1000 nM

Which IC50 value belongs to [2H]C1([2H])OCCCN2c3nc(OC[C@@]45CCCN4C[C@H](F)C5)nc4c(F)c(-c5cc(N)cc6ccc(F)c(C#C)c56)nc(c34)N(C)C21 (stereo partly drawn) ?
118 nM

Which IC50 value belongs to C#Cc1c(F)ccc2cc(N)cc(-c3nc4c5c(nc(OC[C@@]67CCCN6C[C@H](F)C7)nc5c3F)N3CCCC3N4C)c12 (stereo partly drawn) ?
> 1000 nM

Which IC50 value belongs to C#Cc1c(F)ccc2cc(N)cc(-c3nc4c5c(nc(OC[C@@]67CCCN6C[C@H](F)C7)nc5c3F)N3[C@@H](CC)CCOC[C@H]3N4C)c12 ?
204 nM

Which IC50 value belongs to C#Cc1c(F)ccc2cc(N)cc(-c3nc4c5c(nc(OC[C@@]67CCCN6C[C@H](F)C7)nc5c3F)N3CCCOCC3N4C(C)=O)c12 (stereo partly drawn) ?
> 1000 nM

----------
biological target: GDP-KRAS G12V (Homo sapiens, UniProt P01116, G12V); assay: SOS1 catalyzed nucleotide exchange assay, GDP-KRAS G12V; conditions: read-out: Biochemical assays, IC50, KRAS G12V GDP, GDP form K-Ras G12V, TR-FRET
MEASURED_METRIC: IC50 (nM)
Answer format: numeric, nM implied, no suffix.

Which IC50 value belongs to CCc1c(F)ccc2cc(N)cc(-c3nc4c5c(nc(OC[C@@]67CCCN6C[C@H](F)C7)nc5c3F)N3CCCOC[C@H]3CO4)c12 ?
3.37

Which IC50 value belongs to C#Cc1c(F)ccc2cc(N)cc(-c3nc4c5c(nc(OCC67CCCN6CC(F)C7)nc5c3F)N3C(C(F)F)CCOCC3N4C)c12 (stereo not drawn) [Compound 52B] ?
1.97

Which IC50 value belongs to C#Cc1c(F)ccc2cc(N)cc(-c3nc4c5c(nc(OCC67CC(=C)CN6CC(OC)C7)nc5c3F)N3CCCOCC3N4C)c12 (stereo not drawn) ?
3.33

Which IC50 value belongs to C#Cc1c(F)ccc2cc(N)cc(-c3nc4c5c(nc(OCC67CCCN6CC(F)C7)nc5c3F)N3CCCCC(F)C3N4C)c12 (stereo not drawn) [Compound 40B] ?
7.01

Which IC50 value belongs to N#Cc1c(N)sc2c(F)ccc(-c3c(Cl)c4c5c(nc(OCC67CCCN6CC(F)C7)nc5c3F)N3CCCOCC3CO4)c12 (single isomer, unassigned) [Compound 66A] ?
331

Which IC50 value belongs to C#Cc1c(F)ccc2cc(N)cc(-c3nc4c5c(nc(OC[C@@]67CCCN6C[C@H](F)C7)nc5c3F)N3CC(C)COCC3N4C)c12 (single isomer, unassigned) ?
1.79

Which IC50 value belongs to C#Cc1c(F)ccc2cc(N)cc(-c3nc4c5c(nc(OC[C@@]67CCCN6C[C@H](F)C7)nc5c3F)N3CCCC[C@@H](Cl)[C@@H]3N4C)c12 [Compound 62A] ?
389

Which IC50 value belongs to C#Cc1c(F)ccc2cc(N)cc(-c3nc4c5c(nc(OCC67CCCN6CC(F)C7)nc5c3F)N3CCCCCC3CO4)c12 (stereo not drawn) [Compound 27B] ?
2.69

Which IC50 value belongs to C#Cc1c(F)ccc2cc(N)cc(-c3nc4c5c(nc(OC[C@@]67CCCN6C[C@H](F)C7)nc5c3F)N3CCC=C[C@H](F)[C@H]3N4C)c12 [Compound 108A] ?
2.95

Which IC50 value belongs to C#Cc1c(F)ccc2cc(N)cc(-c3nc4c5c(nc(OC[C@@]67CCCN6C[C@H](F)C7)nc5c3F)N3CCCOC[C@H]3[C@H](C)O4)c12 [Compound 18A] ?
4.72

Which IC50 value belongs to C#Cc1c(F)ccc2cc(N)cc(-c3nc4c5c(nc(OC[C@@]67CCCN6C[C@H](F)C7)nc5c3F)N3CC(F)(F)CCC[C@@H]3N4C)c12 [Compound 106A] ?
226

Which IC50 value belongs to C#Cc1c(F)ccc2cc(N)cc(-c3nc4c5c(nc(OCC67CCCN6CC(F)C7)nc5c3F)N3C(C#N)CCCCC3N4C)c12 (stereo not drawn) [Compound 168B] ?
631

Which IC50 value belongs to C#Cc1c(F)ccc2cc(N)cc(-c3c(Cl)c4c5c(nc(OCC67CCCN6CC(F)C7)nc5c3F)N3CCCOCC3CO4)c12 (single isomer, unassigned) [Compound 11B] ?
3.92

Which IC50 value belongs to C#Cc1c(F)ccc2cc(N)cc(-c3nc4c5c(nc(OCC67CCCN6CC(F)C7)nc5c3F)N3C(C)CCOCC3CO4)c12 (stereo not drawn) [Compound 38B] ?
0.397

Which IC50 value belongs to C#Cc1c(F)ccc2cc(N)cc(-c3nc4c5c(nc(OC[C@@]67CCCN6C[C@H](F)C7)nc5c3F)N3CCCCC[C@@H]3CO4)c12 [Compound 27A] ?
65.1
